Kindly supply the reported inhibition values for the records listed here.
# study.system: Histone deacetylase (Homo sapiens) (UniProt Q13547+O15379+Q9UBN7+Q92769+Q9UQL6+Q8WUI4+Q9BY41+Q96DB2+P56524+Q9UKV0+Q969S8);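 also: enzyme source was HeLa nuclear extract, with HDAC activity followed by fluorescence read-out using the Fluor de Lys substrate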
# experimental.conditions: HeLa, at 1 µM
# Description: Inhibition of HDAC in human HeLa cell nuclear extracts using Fluor de Lys as substrate at 1 uM by fluorescence assay
Write down the numeric answer in % and omit the unit.

Ask: May I ask what inhibition has been recorded for CCCNC(=S)Nc1cc(/C=C/C(=O)NO)ccc1SCCN(CC)CC ?
Reply: 76.2

Ask: Another compound: CCCCCCCNC(=S)Nc1cc(/C=C/C(=O)NO)ccc1SCCN(CC)CC
Reply: 62.4

Ask: Input CCCCCCCNC(=O)Nc1cc(/C=C/C(=O)NO)ccc1OCCN(CC)CC
Reply: 83.6

---

Field: GI50. Provide a value for each of the compounds that follow.
# Test system: MCF7
# run.description: Antiproliferative activity against human MCF7 cells after 48 hrs by sulforhodamine B assay
# Assay type: functional
# experimental.conditions: MCF7, 48 h
Give your result in nM as a bare value.

Ask: I would be grateful if you could share the reported GI50 for CCCCCNC(=S)Nc1cc(/C=C/C(=O)NO)ccc1OCCN(CC)CC .
Reply: 380

Ask: Again, but for O=C(CCCCCCC(=O)Nc1ccccc1)NO [VORINOSTAT]
Reply: 450

Ask: Also CCCCCNC(=O)Nc1cc(/C=C/C(=O)NO)ccc1SCCN(CC)CC ?
Reply: 400

Where these numbers come from: ChEMBL document CHEMBL2440014
